Molecular target: Full length DGKζ (in-house protein M1-V929) (Homo sapiens, UniProt Q13574)
Construct: His (N); TEV site (N)
Sequence (Q13574 1-929 isoform Q13574-4): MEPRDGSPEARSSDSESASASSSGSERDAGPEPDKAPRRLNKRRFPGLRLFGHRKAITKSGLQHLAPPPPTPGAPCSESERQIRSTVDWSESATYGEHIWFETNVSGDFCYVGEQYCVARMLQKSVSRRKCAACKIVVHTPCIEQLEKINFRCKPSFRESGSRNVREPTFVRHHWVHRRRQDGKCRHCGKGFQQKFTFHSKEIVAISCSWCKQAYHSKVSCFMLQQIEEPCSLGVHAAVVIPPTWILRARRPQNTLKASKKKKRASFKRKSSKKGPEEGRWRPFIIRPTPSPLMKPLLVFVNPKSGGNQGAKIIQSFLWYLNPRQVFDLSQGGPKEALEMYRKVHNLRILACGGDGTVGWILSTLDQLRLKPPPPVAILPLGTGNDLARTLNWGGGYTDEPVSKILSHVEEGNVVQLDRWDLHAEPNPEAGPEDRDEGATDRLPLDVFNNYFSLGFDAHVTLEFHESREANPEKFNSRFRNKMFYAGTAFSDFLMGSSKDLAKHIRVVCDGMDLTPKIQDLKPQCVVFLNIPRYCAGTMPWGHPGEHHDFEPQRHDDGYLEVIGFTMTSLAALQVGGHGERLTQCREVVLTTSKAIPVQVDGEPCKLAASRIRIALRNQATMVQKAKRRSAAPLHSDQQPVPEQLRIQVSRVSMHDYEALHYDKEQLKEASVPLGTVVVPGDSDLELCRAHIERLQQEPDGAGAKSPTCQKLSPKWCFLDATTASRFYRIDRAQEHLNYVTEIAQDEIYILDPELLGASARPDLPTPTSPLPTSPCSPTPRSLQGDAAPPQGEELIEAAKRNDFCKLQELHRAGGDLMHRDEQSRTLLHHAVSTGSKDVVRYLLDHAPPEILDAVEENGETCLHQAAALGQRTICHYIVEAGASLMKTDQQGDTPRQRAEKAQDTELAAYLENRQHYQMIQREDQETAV
Experiment: Biochemical DGK IC50 assay (ADP-Glo, lipid micelle substrate), DGKζ
Details: 1 hour preincubation, 1 hour reaction, room temperature
Some molecules, each annotated with its measured IC50.
Could you write the number and then its unit?

Reference set, count: 5
# MOLECULE, MEASUREMENT_NAME, MEASURED
data = [
    ("CCn1c(CC#N)nc2c(N3C[C@@H](C)N(C(C)c4ccc5c(c4)OC4(CCC4)O5)C[C@@H]3C)nc(=O)n(C)c21 (single isomer, unassigned) [Compound A169a]", "IC50", "0.01 µM"),
    ("CCn1c(CC#N)nc2c(N3C[C@@H](C)N(C(C)c4cc5c(cc4Cl)OCC(C)(C)O5)C[C@@H]3C)nc(=O)n(C)c21 (stereo partly drawn)", "IC50", "0.639 µM"),
    ("CCn1c(CC#N)nc2c(N3C[C@@H](C)N(C(C)c4cc(Cl)c5c(c4)OC(C)(C)O5)C[C@@H]3C)nc(=O)n(C)c21 (stereo partly drawn)", "IC50", "0.107 µM"),
    ("CCn1c(CC#N)nc2c(N3C[C@@H](C)N(C(C)c4cnc5c(c4)OC(C)(C)CO5)C[C@@H]3C)nc(=O)n(C)c21 (stereo partly drawn)", "IC50", "0.419 µM"),
    ("CCn1c(CC#N)nc2c(N3C[C@@H](C)N(C(C)c4cc5c(cc4F)OCC(C)(C)O5)C[C@@H]3C)nc(=O)n(C)c21 (single isomer, unassigned) [Compound A157a]", "IC50", "0.028 µM"),
]

Continue with the next molecule.
Prompt line: What value of IC50 has been recorded for this entry: CC(c1ccc2nccnc2c1)N1C[C@H](C)N(c2nc(=O)n(C)c3c2nc(CC#N)n3C)C[C@H]1C (stereo partly drawn)
Response line: 0.029 µM

Source: patent US20260125378A2
